experiment: qHTS assay to identify small molecule antagonists of the glucocorticoid receptor (GR) signaling pathway - cell viability counter screen (AID 720693); conditions: GR-bla HeLa viability, CellTiter-Glo luminescence, 18 h, with 5 nM dexamethasone present; series mostly up to 58.5 µM; also: nearly all actives have a fitted effect of over 55% in size
Inconclusive results are not listed. The source made the active and inactive calls. Calls follow the shape of the dose curve; as a rule, active = well fitted cell-killing curve with a large enough effect in the repeat runs; inconclusive = weak or mixed curves, or effect the other way; inactive = no such curve, though single readings can be large or run the other way.
Reported endpoint: outcome

Known results for compounds:
INSERT INTO results (compound, reported_result) VALUES
  ('C=C[C@H]1CN2CC[C@H]1C[C@H]2[C@H](O)c1ccnc2ccc(OC)cc12', 'inactive'),
  ('Cc1ccc(C(C)(C)C)cc1', 'inactive'),
  ('NCCN', 'inactive'),
  ('CCCCCCCCCCC(CO)CCCCCCCC (centres undefined)', 'inactive');

Lookup: Return outcome (reported value) for this compound: Brc1nc2ccccc2s1
Found: inactive

Lookup: Return outcome (reported value) for this compound: NCCS(=O)(=O)O
Found: inactive

Lookup: Return outcome (reported value) for this compound: COC(=O)C(C)Oc1ccc(Oc2ncc(C(F)(F)F)cc2Cl)cc1 (centres undefined)
Found: inactive

Lookup: Return outcome (reported value) for this compound: Nc1cc(Cl)c(N)c(Cl)c1
Found: inactive

Lookup: Return outcome (reported value) for this compound: ClC/C=C/CCl
Found: inactive

Lookup: Return outcome (reported value) for this compound: Cc1ccc([N+](=O)[O-])c(C)c1
Found: inactive
